# System: CAKI-1
# ASSAY_PROTOCOL: NCI tumour cell line growth inhibition, 48 h
Active and inactive are the calls of the source. No stated cut-off is given here; in the data, active = GI50 up to about 1.1 µM and inactive = higher.
EXPERIMENTAL_READOUT: GI50

• CSc1ccc2c(cc1=O)[C@@H](NC(C)=O)CCc1cc(O)c(O)c(O)c1-2 = 48.4 µM (inactive)
• COC(=O)C1c2c(c3ccccc3n2C(=O)OC)CCN2CCC1C(S(=O)(=O)c1ccccc1)C2=O (stereo unspecified) = > 100 µM (inactive)
• OCCNCCOc1ccc(/C(=C(/Cl)c2ccccc2)c2ccccc2)cc1 = 12.4 µM (inactive)
• CCOC(=O)c1c(N2CCCC2)ncn(Cc2ccccc2)c1=S = 30.6 µM (inactive)
• N#CC(C#N)=C1CCCCc2ccc([N+](=O)[O-])cc21 = 95.7 µM (inactive)
• Nc1ncnc2c1ncn2C1CCC(CO)O1 (stereo unspecified) = > 100 µM (inactive)
